- System tested: 5-α-reductase II enzyme (Homo sapiens, UniProt P31213)
- Construct: Specimens of human prostates were quickly frozen in dry ice after collection and kept at −70° C. before isolation of the enzyme; from tissue; host or cells: human prostate specimens, particulate fraction
- Sequence (P31213 whole entry): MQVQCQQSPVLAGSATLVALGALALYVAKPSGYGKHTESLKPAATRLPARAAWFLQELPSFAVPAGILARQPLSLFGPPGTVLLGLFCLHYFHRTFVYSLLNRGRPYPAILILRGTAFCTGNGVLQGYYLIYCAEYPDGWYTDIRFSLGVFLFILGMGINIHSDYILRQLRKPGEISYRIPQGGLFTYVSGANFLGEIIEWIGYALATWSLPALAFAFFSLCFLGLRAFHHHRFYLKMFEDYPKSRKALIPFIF
- Assay comment: Human 5-α-reductase II enzyme assay (human prostate)
- Format: biochemical
- Assay setup: range of IC50 values from different experiments; Tris-citrate pH 5.0; read-out: Human Prostate Enzyme II IC50
- Protocol: Biochemical Assays were carried out to determine the inhibitory activities of various compounds of the previous examples on 5-α-reductase I enzyme isolated from male rate prostate and 5-α-reductase II enzyme isolated from rat epididymus and human prostate. These procedures were carried out following published literature procedures (H. Takami et al., J. Med. Chem., 39, pp 5047-5052; Tehming Liang, Margaret A. Cascieri et al., Endocrinology, 117, pp 571-579). Brief descriptions are as follows: […]
Measurement type: IC50

The recorded IC50 for Cc1ccc(S(=O)(=O)O[C@H]2C[C@H]3NC(=O)C=C[C@]3(C)[C@H]3CC[C@]4(C)[C@@H](C(=O)NC(C)(C)C)CC[C@H]4[C@H]23)cc1 [7-β-Tosyloxy-finasteride, 7-β-tosyloxy-finasteride] is 0.213 to 0.57 µM

The recorded IC50 for CC(C)(C)NC(=O)[C@H]1CC[C@H]2[C@@H]3[C@H](N=[N+]=[N-])C[C@H]4NC(=O)C=C[C@]4(C)[C@H]3CC[C@]12C [7-α-Azido-finasteride, 7-α-azido-finasteride] is 0.019 to 0.032 µM

The recorded IC50 for CC(=O)O[C@H]1C[C@H]2NC(=O)C=C[C@]2(C)[C@H]2CC[C@]3(C)[C@@H](C(=O)NC(C)(C)C)CC[C@H]3[C@H]12 [7-β-Acetoxy-finasteride, 7-β-acetoxy-finasteride] is 0.175 to 0.362 µM

The recorded IC50 for CC(C)(C)NC(=O)[C@H]1CC=C2[C@@H]3CC[C@H]4NC(=O)C=C[C@]4(C)[C@H]3CC[C@@]21C [14,15-Dehydro-finasteride, 14,15-dehydro-finasteride] is 0.039 to 0.0496 µM

---

- System tested: 5-α-reductase II enzyme (Homo sapiens)
- Construct: Specimens of human prostates were quickly frozen in dry ice after collection and kept at −70° C. before isolation of the enzyme; from tissue; host or cells: human prostate specimens, particulate fraction
- Assay comment: Human 5-α-reductase II enzyme assay (human prostate)
- Type: biochemical
- Assay setup: Tris-citrate pH 5.0; read-out: Human Prostate Enzyme II IC50
Measurement type: pIC50
Give only the number. pIC50 is defined as minus log10 of concentration in molar units.

The recorded pIC50 for CC(=O)O[C@@H]1C[C@H](C(=O)NC(C)(C)C)[C@@]2(C)CC[C@H]3[C@@H](CC[C@H]4NC(=O)C=C[C@@]43C)[C@H]12 [15-β-Acetoxy-finasteride, 15-β-acetoxy-finasteride] is 5.70

---

- System tested: 5-α-reductase II enzyme (Homo sapiens)
- Construct: Specimens of human prostates were quickly frozen in dry ice after collection and kept at −70° C. before isolation of the enzyme; from tissue; host or cells: human prostate specimens, particulate fraction
- Assay comment: Human 5-α-reductase II enzyme assay (human prostate)
- Assay type: biochemical
- Assay setup: range of IC50 values from different experiments; Tris-citrate pH 5.0; read-out: Human Prostate Enzyme II IC50
- Procedure: Biochemical Assays were carried out to determine the inhibitory activities of various compounds of the previous examples on 5-α-reductase I enzyme isolated from male rate prostate and 5-α-reductase II enzyme isolated from rat epididymus and human prostate. These procedures were carried out following published literature procedures (H. Takami et al., J. Med. Chem., 39, pp 5047-5052; Tehming Liang, Margaret A. Cascieri et al., Endocrinology, 117, pp 571-579). Brief descriptions are as follows: […]
Measurement type: IC50

The recorded IC50 for CC(C)(C)NC(=O)[C@H]1CC[C@H]2[C@@H]3[C@@H](O)C[C@H]4NC(=O)CC[C@]4(C)[C@H]3CC[C@]12C [1,2-Dihydro-7-β-hydroxy-finasteride, 1,2-dihydro-7-β-hydroxy-finasteride] is 536 to 755 nM

The recorded IC50 for CC(C)(C)NC(=O)C1CC(O)C2C3CCC4NC(=O)C=CC4(C)C3CCC12C (stereo not drawn) [15-β-hydroxy-finasteride] is 50 to 59 nM

The recorded IC50 for CC(C)(C)NC(=O)[C@H]1CC[C@H]2[C@@H]3[C@H](Cl)C[C@H]4NC(=O)C=C[C@]4(C)[C@H]3CC[C@]12C [7-α-Chloro-finasteride, 7-α-chloro-finasteride] is 0.9 to 3.6 nM

The recorded IC50 for CC(C)(C)NC(=O)C1CCC2C3C(CCC12C)C1(C)C=CC(=O)NC1C[C@@H]3O (stereo partly drawn) [7-β-hydroxy-finasteride] is 62 to 64 nM

The recorded IC50 for CC(C)(C)NC(=O)[C@H]1CC[C@H]2[C@@H]3[C@H](Cl)C[C@H]4NC(=O)CC[C@]4(C)[C@H]3CC[C@]12C [1,2-Dihydro-7-α-chloro-finasteride, 1,2-dihydro-7-α-chloro-finasteride] is 11.5 to 44 nM

---

Kindly state IC50 for each of the entries shown.
- System tested: 5-α-reductase I enzyme (Rattus norvegicus)
- Construct: Prostates, removed from 16 young male Sprague dawley rats (each weighing about 300-400 g), were minced and homogenized; from tissue; host or cells: rat prostate (Sprague Dawley), 140,000 g pellet
- Sequence (P24008 whole entry): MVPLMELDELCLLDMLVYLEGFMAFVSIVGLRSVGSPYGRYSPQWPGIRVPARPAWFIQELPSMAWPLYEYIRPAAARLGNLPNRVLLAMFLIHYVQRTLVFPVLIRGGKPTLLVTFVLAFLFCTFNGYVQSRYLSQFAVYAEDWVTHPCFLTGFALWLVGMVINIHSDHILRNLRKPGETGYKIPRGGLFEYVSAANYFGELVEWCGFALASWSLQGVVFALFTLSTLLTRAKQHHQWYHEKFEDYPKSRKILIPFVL
- Assay comment: Rat 5-α-reductase I enzyme assay (rat prostate)
- Assay type: biochemical
- Assay setup: range of IC50 values from different experiments; pH 6.5, 2 μM 14C testosterone

Readout IC50 for Cc1ccc(S(=O)(=O)O[C@H]2C[C@H]3NC(=O)C=C[C@]3(C)[C@H]3CC[C@]4(C)[C@@H](C(=O)NC(C)(C)C)CC[C@H]4[C@H]23)cc1 [7-β-Tosyloxy-finasteride, 7-β-tosyloxy-finasteride] , test system 5-α-reductase I enzyme (Rattus norvegicus), was 1500 to 4300 nM

Readout IC50 for CC(=O)O[C@@H]1C[C@H](C(=O)NC(C)(C)C)[C@@]2(C)CC[C@H]3[C@@H](CC[C@H]4NC(=O)C=C[C@@]43C)[C@H]12 [15-β-Acetoxy-finasteride, 15-β-acetoxy-finasteride] , test system 5-α-reductase I enzyme (Rattus norvegicus), was 4200 to 5700 nM

Readout IC50 for CC(C)(C)NC(=O)C1CCC2C3C(CCC12C)C1(C)C=CC(=O)NC1C[C@@H]3O (stereo partly drawn) [7-β-hydroxy-finasteride] , test system 5-α-reductase I enzyme (Rattus norvegicus), was 811 to 1800 nM

Readout IC50 for CC(C)(C)NC(=O)[C@H]1CC=C2[C@@H]3CC[C@H]4NC(=O)C=C[C@]4(C)[C@H]3CC[C@@]21C [14,15-Dehydro-finasteride, 14,15-dehydro-finasteride] , test system 5-α-reductase I enzyme (Rattus norvegicus), was 50 to 67 nM

Readout IC50 for CC(C)(C)NC(=O)[C@H]1C[C@@H](O)[C@H]2[C@@H]3CC[C@H]4NC(=O)CC[C@]4(C)[C@H]3CC[C@@]21C [1,2-Dihydro-15-β-hydroxy-finasteride, 1,2-dihydro-15β-hydroxy-finasteride] , test system 5-α-reductase I enzyme (Rattus norvegicus), was 351 to 468 nM

---

- System tested: UniProtKB P31214
- Sequence (P31214 1-254): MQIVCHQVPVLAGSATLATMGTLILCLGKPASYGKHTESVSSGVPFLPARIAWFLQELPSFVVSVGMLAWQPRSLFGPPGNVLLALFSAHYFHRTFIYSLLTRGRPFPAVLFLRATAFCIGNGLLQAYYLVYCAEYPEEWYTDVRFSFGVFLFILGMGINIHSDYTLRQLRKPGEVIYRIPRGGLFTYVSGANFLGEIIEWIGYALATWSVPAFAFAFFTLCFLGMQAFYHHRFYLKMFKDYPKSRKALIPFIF
Kindly state IC50 for each of the entries shown.

The recorded IC50 for CC(C)(C)NC(=O)[C@H]1CC[C@H]2[C@@H]3[C@H](Cl)C[C@H]4NC(=O)CC[C@]4(C)[C@H]3CC[C@]12C [1,2-Dihydro-7-α-chloro-finasteride, 1,2-dihydro-7-α-chloro-finasteride] is 2.9 to 8.6 nM

The recorded IC50 for CC(C)(C)NC(=O)[C@H]1CC[C@H]2[C@@H]3[C@H](Cl)C[C@H]4NC(=O)C=C[C@]4(C)[C@H]3CC[C@]12C [7-α-Chloro-finasteride, 7-α-chloro-finasteride] is 1.92 to 3.1 nM

The recorded IC50 for CC(C)(C)NC(=O)C1CC(O)C2C3CCC4NC(=O)C=CC4(C)C3CCC12C (stereo not drawn) [15-β-hydroxy-finasteride] is 640 nM

The recorded IC50 for CC(C)(C)NC(=O)C1CCC2C3C(CCC12C)C1(C)C=CC(=O)NC1C[C@@H]3O (stereo partly drawn) [7-β-hydroxy-finasteride] is 106 nM

The recorded IC50 for CC(C)(C)NC(=O)[C@H]1CC[C@H]2[C@@H]3[C@@H](O)C[C@H]4NC(=O)CC[C@]4(C)[C@H]3CC[C@]12C [1,2-Dihydro-7-β-hydroxy-finasteride, 1,2-dihydro-7-β-hydroxy-finasteride] is 567 to 891 nM

The recorded IC50 for CC(=O)O[C@@H]1C[C@H](C(=O)NC(C)(C)C)[C@@]2(C)CC[C@H]3[C@@H](CC[C@H]4NC(=O)C=C[C@@]43C)[C@H]12 [15-β-Acetoxy-finasteride, 15-β-acetoxy-finasteride] is 1600 to 2700 nM

The recorded IC50 for CC(=O)O[C@H]1C[C@H]2NC(=O)C=C[C@]2(C)[C@H]2CC[C@]3(C)[C@@H](C(=O)NC(C)(C)C)CC[C@H]3[C@H]12 [7-β-Acetoxy-finasteride, 7-β-acetoxy-finasteride] is 135 to 357 nM

The recorded IC50 for CC(C)(C)NC(=O)[C@H]1CC=C2[C@@H]3CC[C@H]4NC(=O)C=C[C@]4(C)[C@H]3CC[C@@]21C [14,15-Dehydro-finasteride, 14,15-dehydro-finasteride] is 45 nM
